Biological target: T1, human melanocortin-4 receptor (human, UniProt P32245 1-332)
T1 construct: whole, on cells; Ki assay used membrane homogenates of HEK-293 cells expressing recombinant hMC4r; also called MC4r; hMC4r
T1 sequence (P32245 whole entry): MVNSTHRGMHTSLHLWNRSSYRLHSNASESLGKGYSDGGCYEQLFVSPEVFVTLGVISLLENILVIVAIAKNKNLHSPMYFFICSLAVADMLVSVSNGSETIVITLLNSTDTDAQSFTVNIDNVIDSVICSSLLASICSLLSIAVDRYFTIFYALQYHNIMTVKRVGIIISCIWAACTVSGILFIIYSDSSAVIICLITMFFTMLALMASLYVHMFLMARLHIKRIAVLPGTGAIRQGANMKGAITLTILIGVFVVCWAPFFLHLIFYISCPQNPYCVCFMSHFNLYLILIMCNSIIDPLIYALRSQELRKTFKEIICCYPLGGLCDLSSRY
Test: [I125]-NDP-α-MSH competition, hMC4r HEK-293 membranes
Bridge positions count the residues as written; N and C are the ends. Square brackets hold non-standard residues; d marks the D form. * marks the point of attachment. Cyclohexylacetyl = O=C(CC1CCCCC1)*; Hydrocinnamoyl = O=C(CCc1ccccc1)*; Nle = CCCC[C@H](N)C(=O)O; Dab = NCC[C@H](N)C(=O)O; Pentanoyl = CCCCC(=O)*; Butyryl = CCCC(=O)*
This section presents binders with their documented Ki values.
Reply numerically in nM, unit not repeated.

Please review the entries below; each comes with its answer.
Butyryl-EH[dF]R[Dab]W-NH2 (lactam 1-5, also called 9.15) [CH3-(CH2)2-C(═O)-cyclo(Glu-His-D-Phe-Arg-Dab)-Trp-NH2]: 890
Pentanoyl-EH[dF]R[Dab]W-NH2 (lactam 1-5, also called 9.16) [CH3-(CH2)3-C(═O)-cyclo(Glu-His-D-Phe-Arg-Dab)-Trp-NH2]: 365
Cyclohexylacetyl-EH[dF]R[Dab]W-NH2 (lactam 1-5, also called 9.22) [cyclohexyl acetyl-cyclo(Glu-His-D-Phe-Arg-Dab)-Trp-NH2]: 63
Hydrocinnamoyl-EH[dF]R[Dab]W-NH2 (lactam 1-5, also called 9.24) [phenyl propanoyl-cyclo(Glu-His-D-Phe-Arg-Dab)-Trp-NH2]: 285

Proceed to the following item.
Task: // returns reported Ki for input Ac-[Nle]EHFR[Dab]W-NH2 (lactam 2-6, also called 9.8) [Ac-Nle-cyclo(Glu-His-Phe-Arg-Dab)-Trp-NH2]
Output: 10000

These data points were gathered from patent US20220088146A1.
